- target_desc: T1, hPDGFRb.mmh (human, UniProt P09619 33-531)
- T1 construct: Soluble monomeric construct; also called soluble human PDGFR-beta.mmh
- assay_procedure: SPR, mAb captured, 37 C
quantity_kind: kon (M⁻¹ s⁻¹)

>>> observed_measurement("H4H3096S (antibody, human IgG4, V domains shown, human IgG4 Fc (H4H prefix)) VH: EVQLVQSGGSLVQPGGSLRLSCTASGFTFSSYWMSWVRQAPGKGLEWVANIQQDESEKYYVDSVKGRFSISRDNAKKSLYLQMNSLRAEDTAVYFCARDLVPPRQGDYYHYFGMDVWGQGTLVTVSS VL: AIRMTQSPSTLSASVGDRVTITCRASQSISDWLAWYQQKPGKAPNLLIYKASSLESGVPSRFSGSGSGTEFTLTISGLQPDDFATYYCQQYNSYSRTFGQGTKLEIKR")
452000
>>> observed_measurement("H1M3374N (antibody, V domains shown, mouse Fc format; also called H2M3374N) VH: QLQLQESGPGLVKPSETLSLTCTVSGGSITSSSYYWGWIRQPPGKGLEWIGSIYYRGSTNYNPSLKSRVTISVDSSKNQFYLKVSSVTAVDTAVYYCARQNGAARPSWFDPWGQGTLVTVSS VL: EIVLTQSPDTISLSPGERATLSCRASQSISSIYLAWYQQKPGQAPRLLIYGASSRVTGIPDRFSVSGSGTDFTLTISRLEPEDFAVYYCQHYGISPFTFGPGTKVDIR")
463000
>>> observed_measurement("H4H3374N (antibody, human IgG4, V domains shown, human IgG4 Fc (H4H prefix)) VH: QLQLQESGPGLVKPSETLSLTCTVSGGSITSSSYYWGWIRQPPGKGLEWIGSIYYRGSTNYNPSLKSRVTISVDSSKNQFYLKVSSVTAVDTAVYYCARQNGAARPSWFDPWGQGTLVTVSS VL: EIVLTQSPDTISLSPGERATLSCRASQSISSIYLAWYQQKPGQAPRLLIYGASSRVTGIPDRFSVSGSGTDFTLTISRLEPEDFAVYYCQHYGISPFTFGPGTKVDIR")
685000
